# Target: T1, PSMA Fab (biotinylated (site not stated))
# T1 construct: also called Anti-PSMA Fab; 006 PSMA Fab
# Method summary: clonal phage ELISA on captured biotinylated PSMA Fab; competitor: PSMA antigen at saturating concentration
Where no end group is shown, it is not given here.
Please respond with reported phage binding ELISA signal (Anti-PSMA Fab, wells pre-incubated with PSMA antigen) for every item in the list.
Answers are plain numbers.

[[record]]
binder = "SVKWCTPSWMCTEW [Phage-2788]"
measured = 0.104

[[record]]
binder = "VMKWCTPSWMCAEA (cysteine pairing not given here; also: fused to pIII, displayed on bacteriophage) [Phage-2790]"
measured = 0.0742

[[record]]
binder = "ESKWCVPTWMCAEN (cysteine pairing not given here; also: fused to pIII, displayed on bacteriophage) [Phage-2799]"
measured = 0.0578

[[record]]
binder = "TPKWCTPAWMCVVS [Phage-2802]"
measured = 0.077

[[record]]
binder = "TQHWCTPIWMCEGL [Phage-2792]"
measured = 0.0819


query: If you can, please state the reported phage binding ELISA signal (Anti-PSMA Fab, wells pre-incubated with PSMA antigen) value of LWKSCTPEWMCAEW (cysteine pairing not given here; also: fused to pIII, displayed on bacteriophage) [Phage-2787] .
result: 0.0991
